Field: TGI. Provide a value for each of the compounds that follow.
tested on: HT29 colon; assay: NCI tumour cell line growth inhibition, 48 h

Summary for this compound, COC(=O)C12C3C=CC(O3)C1C1C=CC2O1 (configuration not stated) : TGI is > 100 µM

Summary for this compound, `NCCCNCCCNc1nc2ccccc2c2[nH]c3ccccc3c12` : TGI is 1.86 µM

Summary for this compound, `CCOC(=O)CC(=O)Nc1c(C(=O)OCC)sc2nc(SC)nc(Nc3ccc(OC)c(OC)c3)c12` : TGI is > 100 µM

Summary for this compound, `COc1ccc(Br)c(CCCCC(=O)O)c1` : TGI is > 100 µM

Summary for this compound, `CC(=O)Nc1ccccc1S(=O)(=O)c1c(-c2c(C)c(Cl)c(C)c(Cl)c2C)noc1C` : TGI is > 100 µM

Summary for this compound, `Cc1cc2c(C)nn(Cc3ccc(Cl)cc3Cl)c2c(C#N)c1C` : TGI is > 100 µM

Summary for this compound, CCOC(=O)C12CN(C34CC5CC(CC(C5)C3)C4)CC(C(=O)OCC)(C1=O)C(c1ccccc1)OC2c1ccccc1 (configuration not stated) : TGI is > 100 µM

Summary for this compound, COC(=O)C1CCCCCCCCCCC12SCCCS2 (configuration not stated) : TGI is 91.5 µM

Summary for this compound, COc1cc(-c2c(C(C)=O)c(-c3ccccc3)n(C3OC(COC(C)=O)C(OC(C)=O)C(OC(C)=O)C3OC(C)=O)c(=S)c2C#N)ccc1O (configuration not stated) : TGI is > 100 µM

Summary for this compound, `COc1ccc(/C=N/Nc2nc3ccccc3c(=O)n2-c2ccccc2)cc1` : TGI is > 100 µM

Summary for this compound, `CSc1nc2ccccc2c(=O)n1-c1cccc(C)c1` : TGI is > 100 µM

Summary for this compound, O=C1NCC2=C1CCC1c3ccccc3CCN21 (configuration not stated) : TGI is > 100 µM

Summary for this compound, O=C(O)C1CCCCN1CCc1c[nH]c2ccccc12 (configuration not stated) : TGI is > 100 µM

Summary for this compound, `CCOC(=O)c1c(C)n(-c2ccc(C)cc2)c2c1cc(O)c1[nH]c3c(c12)CCCC3` : TGI is 32.3 µM

Summary for this compound, `CC[C@]12C=CCN3CC[C@]4(C(=C(C(=O)OC)C1)Nc1ccccc14)[C@@H]32` : TGI is 12.8 µM

Summary for this compound, `N=C(N)c1ccc(-c2ccc(-c3ccccc3)o2)cc1` : TGI is 4.51 µM

Summary for this compound, CC1=NN(c2ccccc2Cl)C2(C1)SCC(=O)N2c1nc2ccccc2s1 (configuration not stated) : TGI is > 100 µM

====

Field: TGI. Provide a value for each of the compounds that follow.
tested on: SNB-75 CNS; test: NCI tumour cell line growth inhibition, 48 h

Summary for this compound, `CC(=O)[CH-]C(=O)c1ccccc1.CC(=O)[CH-]C(=O)c1ccccc1.[O-]Cc1cccs1.[O-]Cc1cccs1.[Ti+4]` : TGI is > 100 µM

Summary for this compound, CCN1N=CSC12C(=O)N(c1ccccc1)C(=O)N2c1ccccc1 (stereo not drawn) : TGI is > 100 µM

Summary for this compound, O=C1NCC2=C1CCC1c3ccccc3CCN21 (stereo not drawn) : TGI is > 100 µM
